- Experiment description: qHTS assay to identify small molecule antagonists of the estrogen related receptor signaling pathway with the pleiotropic PPARgamma coactivator (PGC) from Tox21 10K library - cell viability counter screen (AID 1224840); note: nearly all actives have a fitted effect of over 40% in size; note: potency is the fitted concentration of half-maximal effect
- Settings: PGC/ERR reporter cells viability, CellTiter-Fluor, 17.5 h; series mostly up to 92.4 µM
- Procedure: National Center for Advancing Translational Sciences [NCATS] NIH Chemical Genomics Center [NCGC] U.S. Environmental Protection Agency [EPA] National Institutes of Environmental Health Sciences [NIEHS] National Toxicology Program [NTP] […] The PGC/ERR cells were dispensed at 2,000 cells/5 ul/well in 1536-well white plates using a Multidrop dispenser. […] After 30-minute incubation at 37 C/5% CO2, the fluorescence intensity in the plates was measured using a ViewLux plate reader.
Records with an inconclusive call do not appear. Active and inactive are the calls of the source. Calls come from the whole dose curve; as a rule, active = well fitted cell-killing curve with a large enough effect in the repeat runs (not every such curve was filed as active); inconclusive = weak or mixed curves, or effect the other way; inactive = no such curve, though single readings can be large or run the other way.
Reported metric: Potency

Answered examples (8):
[
  {
    "Compound": "CC1=CCC(=C(C)C)CC1",
    "Potency": "inactive"
  },
  {
    "Compound": "CCCCCCC1CCCC(=O)O1 (stereo not given)",
    "Potency": "inactive"
  },
  {
    "Compound": "CCN(CC)c1ccc2c(-c3ccc(S(=O)(=O)O)cc3S(=O)(=O)[O-])c3ccc(=[N+](CC)CC)cc-3oc2c1",
    "Potency": "28.2 µM (active)"
  },
  {
    "Compound": "Cc1cc(C(C)(C)C)c(O)c(C)c1Cn1c(=O)n(Cc2c(C)cc(C(C)(C)C)c(O)c2C)c(=O)n(Cc2c(C)cc(C(C)(C)C)c(O)c2C)c1=O",
    "Potency": "inactive"
  },
  {
    "Compound": "COc1cc(/C=C/c2ccccc2)oc(=O)c1",
    "Potency": "inactive"
  },
  {
    "Compound": "O=C(O)c1cccc(C(F)(F)F)c1",
    "Potency": "inactive"
  },
  {
    "Compound": "COc1cccc2c1C(=O)c1c(O)c3c(c(O)c1C2=O)C[C@@](O)(C(C)=O)C[C@@H]3O[C@H]1C[C@H](N)[C@H](O)[C@H](C)O1",
    "Potency": "27.5 µM (active)"
  },
  {
    "Compound": "NC(=O)c1cccc([N+](=O)[O-])c1",
    "Potency": "inactive"
  }
]

Field request: Potency | item: CC(C)(C)c1csc(-c2cc3cc(OCc4ccccc4CC(=O)O)ccc3o2)n1
inactive

Field request: Potency | item: C1CCC(SSC2CCCCC2)CC1
inactive

---

- Experiment description: qHTS assay for small molecule disruptors of the mitochondrial membrane potential - cell viability (AID 720634); note: nearly all actives have a fitted effect of over 20% in size
- Settings: HepG2 viability, ATP luminescence (CellTiter-Glo), 1 h; series mostly up to 83.2 µM
Records with an inconclusive call do not appear. Activity calls are given as the source filed them. The call rests on the fitted dose curve.
Hi! Could you answer with just one of these? active, inactive

Recorded call for O=C(O)c1cc(=O)c2ccccc2o1 ?
inactive

Recorded call for C#C[C@]1(OC(C)=O)CC[C@H]2[C@@H]3CCC4=C[C@@H](OC(C)=O)CC[C@@H]4[C@H]3CC[C@@]21C ?
inactive

Recorded call for O=c1[nH]c(=O)n([C@H]2C[C@H](O)[C@@H](CO)O2)cc1F ?
inactive

Recorded call for Nc1nc2c(ncn2COCCO)c(=O)[nH]1 ?
inactive

Recorded call for O=C(O)c1cc(-c2ccc(F)cc2F)ccc1O ?
inactive

Recorded call for CCN(CC)c1ccc2c(-c3ccc(S(=O)(=O)O)cc3S(=O)(=O)[O-])c3ccc(=[N+](CC)CC)cc-3oc2c1 ?
active

Recorded call for C=CC(=O)OCCOC(=O)C=C ?
inactive

Recorded call for Cc1cc(C(C)(C)C)cc(C)c1CC1=NCCN1 ?
inactive

Recorded call for CC(N=C(NC#N)Nc1ccncc1)C(C)(C)C (stereo unspecified) ?
inactive

Recorded call for CCCCNS(=O)(=O)c1ccc(C)cc1 ?
inactive

Recorded call for O=C(Oc1ccccc1)Oc1ccccc1 ?
inactive

Recorded call for Cc1c(C)c2c(c(C)c1O)CC[C@@](C)(CCC[C@H](C)CCC[C@H](C)CCCC(C)C)O2 ?
inactive

Recorded call for O[C@@H]([C@H](O)[C@H](O)CBr)[C@H](O)CBr ?
inactive

Recorded call for CC(=O)c1ccc(C(C)=O)cc1 ?
inactive

Recorded call for O=C(/C=C/c1ccc(O)c(O)c1)O[C@@H](C(=O)O)[C@@H](OC(=O)/C=C/c1ccc(O)c(O)c1)C(=O)O ?
inactive

Recorded call for C=Cc1ccccc1C=C ?
inactive

Recorded call for CC(C)NC[C@@H](O)COc1ccc(CC(N)=O)cc1 ?
inactive

Recorded call for Cc1ccc(C)cc1 ?
inactive

Recorded call for O=C1CCc2cc(OCCCCc3nnnn3C3CCCCC3)ccc2N1 ?
inactive

Recorded call for O=[N+]([O-])c1ccc(F)c(Cl)c1 ?
inactive

Recorded call for CCCCC/C=C\C/C=C\CCCCCCCC(=O)O ?
inactive

Recorded call for Cc1ccc(O)c(N)c1 ?
inactive

Recorded call for CCOc1ccc2ccccc2c1C(=O)N[C@@H]1C(=O)N2[C@@H]1SC(C)(C)[C@@H]2C(=O)O ?
inactive

Recorded call for CCCCCCCCCCCCCC[N+](C)(C)C ?
inactive

Recorded call for CCCC[P+](C)(CCCC)CCCC ?
inactive

Recorded call for O=c1oc2cc(O)ccc2c2oc3cc(O)ccc3c12 ?
inactive

---

- Experiment description: qHTS RealTime-Glo MT Cell Viability Assay in HEK293 cells - 32 hour (AID 1224868); note: top concentration of the series differs between compounds; % is set by controls: 0 for no effect and ±100 for the full control effect; nearly all actives have a fitted effect of over 50% in size
- Settings: RealTime-Glo luminescence; series mostly up to 76.8 µM
Records with an inconclusive call do not appear. Calls of active or inactive are those of the source. Calls come from the whole dose curve; as a rule, active = well fitted cell-killing curve with a large enough effect in the repeat runs; inconclusive = weak or mixed curves, or effect the other way; inactive = flat fitted curve, though single readings scatter.
Assignment: determine reported activity change, negative = cytotoxic for the given compounds.

Field request: activity change, negative = cytotoxic | item: O=C(O)CN(CCN(CC(=O)O)CC(=O)O)CC(=O)O
9.19% [at 2.72 µM] (inactive)

Field request: activity change, negative = cytotoxic | item: COc1cc2nc(N3CCN(C(=O)c4ccco4)CC3)nc(N)c2cc1OC
-17.7% [at 15.8 µM] (inactive)

Field request: activity change, negative = cytotoxic | item: O=C(O)O
0.187% [at 6.97 µM] (inactive)

Field request: activity change, negative = cytotoxic | item: CC(C)(C)CC(C)(C)c1ccc(Nc2ccc(C(C)(C)CC(C)(C)C)cc2)cc1
9.22% [at 6.97 µM] (inactive)

---

- Assay system: Peroxisome proliferator-activated receptor gamma (Homo sapiens) (UniProt P37231)
- Sequence (P37231 whole entry, looked up): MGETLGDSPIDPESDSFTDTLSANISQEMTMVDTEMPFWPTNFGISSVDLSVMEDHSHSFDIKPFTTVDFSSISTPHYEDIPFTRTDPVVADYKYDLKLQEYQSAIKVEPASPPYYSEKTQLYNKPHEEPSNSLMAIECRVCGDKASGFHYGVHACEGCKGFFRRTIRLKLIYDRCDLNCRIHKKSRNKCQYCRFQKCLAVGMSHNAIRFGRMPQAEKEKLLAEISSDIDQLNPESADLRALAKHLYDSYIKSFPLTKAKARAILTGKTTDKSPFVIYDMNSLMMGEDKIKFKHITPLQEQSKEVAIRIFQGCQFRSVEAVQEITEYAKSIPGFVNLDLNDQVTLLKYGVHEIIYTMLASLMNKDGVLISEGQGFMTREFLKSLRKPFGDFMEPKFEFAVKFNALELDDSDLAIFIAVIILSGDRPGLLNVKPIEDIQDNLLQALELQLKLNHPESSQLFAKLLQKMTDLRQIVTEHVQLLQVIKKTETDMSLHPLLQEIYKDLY
- Experiment description: qHTS assay to identify small molecule agonists of the peroxisome proliferator-activated receptor gamma (PPARg) signaling pathway (AID 743094); for activation: % is set by controls: 0 for no effect and ±100 for the full control effect
- Settings: HEK293H PPARg-UAS-bla, beta-lactamase FRET ratio, 17 h; series mostly up to 57 µM
Inconclusive results are not listed. Activity calls are given as the source filed them. The call rests on the fitted dose curve; in most records, active means well fitted activation curve with a large enough effect in the signal ratio in the repeat runs (not every such curve was filed as active); inconclusive means weak or mixed curves, or effect the other way; inactive means no such curve, though single readings can be large or run the other way; the % refers to the signal ratio.
Hi! Could you answer with just one of these? active, inactive

Recorded call for S=c1nccc[nH]1 ?
inactive

Recorded call for CCCCCC(C)OC(=O)COc1ccc(Cl)c2cccnc12 (centres undefined) ?
inactive

Recorded call for CCOC(=O)Cn1cccc1-c1nc(-c2ccc(OC)cc2)c(-c2ccc(OC)cc2)s1 ?
inactive

Recorded call for CCCC1CCC(=O)CC1 ?
inactive

Recorded call for CC(C)CCOC(=O)/C=C/c1ccccc1 ?
inactive

Recorded call for C1CCC(SSC2CCCCC2)CC1 ?
inactive

Recorded call for CCCCNS(=O)(=O)c1ccc(C)cc1 ?
inactive

Recorded call for OC/C=C/CO ?
inactive

Recorded call for C[C@@H](O)[C@H](N)C(=O)O ?
inactive

Recorded call for OCC(F)(F)F ?
inactive

Recorded call for CC(C)(C)C1CCC(=O)CC1 ?
inactive

Recorded call for Cc1ccc(-c2ccccc2)cc1 ?
inactive

Recorded call for C=Cc1cccc(C)c1 ?
inactive

Recorded call for O=C(Nc1ccc2c(O)c(N=Nc3ccc(N=Nc4ccc(S(=O)(=O)O)cc4)cc3)c(S(=O)(=O)O)cc2c1)c1ccccc1 ?
inactive

Recorded call for CCCCCCCCCCCCOC(=O)c1ccc(O)cc1 ?
inactive

Recorded call for CC(C)(C)c1csc(-c2cc3cc(OCc4ccccc4CC(=O)O)ccc3o2)n1 ?
active

Recorded call for CN1CCCCC1CCN1c2ccccc2Sc2ccc(S(C)=O)cc21 (centres undefined) ?
inactive

Recorded call for CC(C)OC(=O)C(O)(CC(=O)O)CC(=O)O ?
inactive

Recorded call for CC(CO)Oc1ccccc1 (centres undefined) ?
inactive

Recorded call for COC(C)=O ?
inactive

Recorded call for CC1(C)CCC[C@]2(C)[C@H]3CC(=O)O[C@]3(C)CC[C@@H]12 ?
inactive

Recorded call for CC1(C)CC(O)CC(C)(C)N1 ?
inactive

Recorded call for Cc1ccc(C(C)C)cc2c(C)ccc1-2 ?
inactive

Recorded call for NC(=O)c1cccc([N+](=O)[O-])c1 ?
inactive

Recorded call for Cc1cc(C)c(/C=C2\C(=O)Nc3ccccc32)[nH]1 ?
inactive

Recorded call for O=C(O)c1ccc2cc(C(=O)O)ccc2c1 ?
inactive

Recorded call for CCCCCCCCCCCCCC[N+](C)(C)Cc1ccccc1 ?
inactive

Recorded call for O=C(c1ccc(O)c(O)c1)c1ccc(O)cc1O ?
inactive

Recorded call for c1cnccn1 ?
inactive
